All values here come from patent US10246444B2.

- System tested: various mutant EGF receptors (Homo sapiens, UniProt P00533, DEL747-751/INS746S)
- Measurement protocol: KINOMEscan competition binding assay (Kd), Example 40 in various mutant EGF receptors (Table 17)
pKd: −log10 of the molar value.
Measure name: pKd

The recorded pKd for entry CCOc1cc2ncc(C#N)c(Nc3ccc(OCc4cccc(F)c4)c(Cl)c3)c2cc1NC(=O)CC1CCSS1 (stereo not shown) [Example 40] equals 7.00 to 9.00

----------
- System tested: kinase (Homo sapiens, UniProt P00533, DEL746-750)
- Measurement protocol: Radioisotope filter binding assay (33P-ATP kinase activity, IC50)
- Run conditions: EGFR E746-A750del, read-out: IC50 Activity level EGFR E746-A750del
pIC50: −log10 of the molar value.
Hi there, I'd appreciate the recorded pIC50 for every entry that follows.

Worked cases, pIC50 given:
The recorded pIC50 for entry N#Cc1cnc2cc(OC[C@@H](O)CO)c(NC(=O)CC3CSSC3)cc2c1Nc1ccc(OCc2cccc(F)c2)c(Cl)c1 equals 5.00 to 6.00

The recorded pIC50 for entry N#Cc1cnc2cc(OC[C@@H](O)CO)c(NC(=O)C3CSSC3)cc2c1Nc1ccc(OCc2cccc(F)c2)c(Cl)c1 equals 6.00 to 7.00

The recorded pIC50 for entry N#Cc1cnc2cc(OC[C@H](O)CO)c(NC(=O)CC3CSSC3)cc2c1Nc1ccc(OCc2cccc(F)c2)c(Cl)c1 equals 5.00 to 6.00

New cases:
The recorded pIC50 for entry N#Cc1cnc2cc(OC[C@H](O)CO)c(NC(=O)C3CSSC3)cc2c1Nc1ccc(OCc2cccc(F)c2)c(Cl)c1 equals 5.00 to 6.00

----------
Hi there, I'd appreciate the recorded IC50 for every entry that follows.
- System tested: EGFR (L858R) (Homo sapiens (Human), UniProt P00533, L858R)
- Sequence (P00533 25-1210 L858R): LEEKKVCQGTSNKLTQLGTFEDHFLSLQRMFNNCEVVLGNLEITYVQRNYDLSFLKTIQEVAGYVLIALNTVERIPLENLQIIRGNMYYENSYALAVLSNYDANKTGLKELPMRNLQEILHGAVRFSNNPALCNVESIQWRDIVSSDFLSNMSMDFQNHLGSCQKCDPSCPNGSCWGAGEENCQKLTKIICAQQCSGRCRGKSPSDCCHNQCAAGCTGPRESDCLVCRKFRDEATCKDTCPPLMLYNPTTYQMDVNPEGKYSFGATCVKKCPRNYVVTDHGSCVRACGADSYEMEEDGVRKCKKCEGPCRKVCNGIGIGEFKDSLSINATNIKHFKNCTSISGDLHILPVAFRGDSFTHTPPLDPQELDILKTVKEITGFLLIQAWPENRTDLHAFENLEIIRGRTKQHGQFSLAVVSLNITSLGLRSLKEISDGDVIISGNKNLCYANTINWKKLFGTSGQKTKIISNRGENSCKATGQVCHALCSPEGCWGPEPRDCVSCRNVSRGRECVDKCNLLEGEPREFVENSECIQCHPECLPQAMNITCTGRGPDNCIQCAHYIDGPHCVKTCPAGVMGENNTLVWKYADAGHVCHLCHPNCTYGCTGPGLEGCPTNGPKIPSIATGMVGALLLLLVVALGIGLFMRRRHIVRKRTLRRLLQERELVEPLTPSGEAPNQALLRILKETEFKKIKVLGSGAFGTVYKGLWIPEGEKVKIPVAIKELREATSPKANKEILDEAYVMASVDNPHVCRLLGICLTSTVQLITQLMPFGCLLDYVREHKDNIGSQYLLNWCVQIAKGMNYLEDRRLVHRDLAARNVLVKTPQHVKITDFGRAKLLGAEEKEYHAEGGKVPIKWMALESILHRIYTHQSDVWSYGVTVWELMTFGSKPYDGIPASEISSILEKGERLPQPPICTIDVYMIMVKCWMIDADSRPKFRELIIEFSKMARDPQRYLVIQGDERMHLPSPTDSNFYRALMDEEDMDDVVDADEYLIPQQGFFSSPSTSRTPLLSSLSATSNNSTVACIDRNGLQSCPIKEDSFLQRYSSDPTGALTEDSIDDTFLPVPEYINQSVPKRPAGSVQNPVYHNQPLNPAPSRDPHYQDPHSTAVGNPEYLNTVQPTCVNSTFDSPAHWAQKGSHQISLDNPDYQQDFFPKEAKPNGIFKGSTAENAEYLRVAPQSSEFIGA
- Measurement protocol: KinaseSeeker rabbit reticulocyte lysate competition binding assay (IC50)

Worked cases, IC50 given:
IC50 of CCOc1cc2ncc(C#N)c(Nc3ccc(F)c(Cl)c3)c2cc1NC(=O)CC1CCSS1 (stereo not shown) , assay on EGFR (L858R) (Homo sapiens (Human), UniProt P00533, L858R), is 100 to 999 nM

IC50 of CC(=O)SCC(CSC(C)=O)C(=O)Nc1ccc2ncc(C#N)c(Nc3ccc(OCc4cccc(F)c4)c(Cl)c3)c2c1 , assay on EGFR (L858R) (Homo sapiens (Human), UniProt P00533, L858R), is 1 to 99 nM

IC50 of CCOc1cc2ncc(C#N)c(Nc3ccc(F)c(Cl)c3)c2cc1NC(=O)C1CSSC1 , assay on EGFR (L858R) (Homo sapiens (Human), UniProt P00533, L858R), is 100 to 999 nM

IC50 of COc1cc2ncnc(Nc3ccc(Oc4ccc(C)nc4)c(C)c3)c2cc1NC(=O)C1CSSC1 , assay on EGFR (L858R) (Homo sapiens (Human), UniProt P00533, L858R), is 100 to 999 nM

List reported IC50 for each of these molecules:
1. CCOc1cc2ncc(C#N)c(Nc3ccc(OCc4cccc(F)c4)c(Cl)c3)c2cc1NC(=O)CCCCC1CCSS1 (stereo not shown)
2. CCOc1cc2ncc(C#N)c(Nc3ccc(OCc4cccc(F)c4)c(Cl)c3)c2cc1NC(=O)CC1CCSS1 (stereo not shown)
3. COc1cc2ncnc(Nc3ccc(OCc4cccc(F)c4)c(Cl)c3)c2cc1NC(=O)C1CSSC1

1. 1 to 99 nM
2. 1 to 99 nM
3. 1 to 99 nM

----------
- System tested: various mutant EGF receptors (Homo sapiens, UniProt P00533, G719C)
- Measurement protocol: KINOMEscan competition binding assay (Kd), Example 40 in various mutant EGF receptors (Table 17)
Measure name: Kd

The recorded Kd for entry CCOc1cc2ncc(C#N)c(Nc3ccc(OCc4cccc(F)c4)c(Cl)c3)c2cc1NC(=O)CC1CCSS1 (stereo not shown) equals 1 to 99 nM

----------
- System tested: various mutant EGF receptors (Homo sapiens, UniProt P00533, L861Q)
- Sequence (P00533 25-1210 L861Q limits assumed): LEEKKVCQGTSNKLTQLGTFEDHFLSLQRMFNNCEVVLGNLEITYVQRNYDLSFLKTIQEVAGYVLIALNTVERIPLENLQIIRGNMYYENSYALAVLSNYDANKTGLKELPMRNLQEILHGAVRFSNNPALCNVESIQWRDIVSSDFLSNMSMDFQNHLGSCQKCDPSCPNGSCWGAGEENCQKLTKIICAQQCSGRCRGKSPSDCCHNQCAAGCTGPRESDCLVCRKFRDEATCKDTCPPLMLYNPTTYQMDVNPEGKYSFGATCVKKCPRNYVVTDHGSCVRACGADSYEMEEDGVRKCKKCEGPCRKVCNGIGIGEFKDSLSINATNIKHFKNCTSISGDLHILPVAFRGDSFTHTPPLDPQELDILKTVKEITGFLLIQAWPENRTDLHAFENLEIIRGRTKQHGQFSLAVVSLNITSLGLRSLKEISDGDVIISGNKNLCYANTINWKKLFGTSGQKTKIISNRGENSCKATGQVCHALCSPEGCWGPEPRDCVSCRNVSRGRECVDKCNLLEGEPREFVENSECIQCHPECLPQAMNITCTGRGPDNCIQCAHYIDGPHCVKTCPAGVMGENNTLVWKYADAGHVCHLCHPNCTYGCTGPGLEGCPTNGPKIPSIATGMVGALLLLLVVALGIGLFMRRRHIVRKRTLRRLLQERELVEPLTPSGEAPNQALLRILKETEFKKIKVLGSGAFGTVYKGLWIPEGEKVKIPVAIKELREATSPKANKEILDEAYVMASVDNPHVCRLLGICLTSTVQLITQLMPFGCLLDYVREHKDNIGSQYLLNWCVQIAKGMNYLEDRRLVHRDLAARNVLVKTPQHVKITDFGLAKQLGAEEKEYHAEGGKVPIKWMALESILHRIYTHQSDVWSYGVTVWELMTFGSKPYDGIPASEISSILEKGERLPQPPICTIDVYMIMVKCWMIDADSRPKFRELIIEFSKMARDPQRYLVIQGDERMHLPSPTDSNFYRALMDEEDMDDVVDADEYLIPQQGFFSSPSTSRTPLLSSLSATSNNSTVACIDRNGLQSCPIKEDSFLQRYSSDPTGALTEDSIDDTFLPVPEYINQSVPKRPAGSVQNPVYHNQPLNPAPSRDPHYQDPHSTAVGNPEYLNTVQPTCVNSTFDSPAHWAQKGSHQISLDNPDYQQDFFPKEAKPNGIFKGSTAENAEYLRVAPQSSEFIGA
- Measurement protocol: KINOMEscan competition binding assay (Kd), Example 40 in various mutant EGF receptors (Table 17)
Measure name: Kd

The recorded Kd for entry CCOc1cc2ncc(C#N)c(Nc3ccc(OCc4cccc(F)c4)c(Cl)c3)c2cc1NC(=O)CC1CCSS1 (stereo not shown) [Example 40] equals 1 to 99 nM

----------
- System tested: UniProt P04626
- Measurement protocol: KinaseSeeker rabbit reticulocyte lysate competition binding assay (IC50)
- Run conditions: read-out: IC50 Activity level HER2; KinaseSeeker, Table 18
pIC50: −log10 of the molar value.
Measure name: pIC50

The recorded pIC50 for entry Cc1ccc(Oc2ccc(Nc3c(C#N)cnc4ccc(NC(=O)CC5CCSS5)cc34)cc2C)cn1 (stereo not shown) equals < 5.00

----------
Hi there, I'd appreciate the recorded pIC50 for every entry that follows.
- System tested: kinase
- Measurement protocol: Radioisotope filter binding assay (33P-ATP kinase activity, IC50)
- Run conditions: HER 2, read-out: IC50 Activity level HER 2
pIC50: −log10 of the molar value.

The recorded pIC50 for entry N#Cc1cnc2cc(OC[C@@H](O)CO)c(NC(=O)C3CSSC3)cc2c1Nc1ccc(OCc2cccc(F)c2)c(Cl)c1 [Example 98] equals 6.00 to 7.00

Moving on to another molecule below.
The recorded pIC50 for entry N#Cc1cnc2cc(OC[C@@H](O)CO)c(NC(=O)CC3CSSC3)cc2c1Nc1ccc(OCc2cccc(F)c2)c(Cl)c1 [Example 92] equals 6.00 to 7.00

----------
Hi there, I'd appreciate the recorded pIC50 for every entry that follows.
- System tested: kinase (Homo sapiens, UniProt P00533, L858R)
- Sequence (P00533 25-1210 L858R limits assumed): as the sequence (P00533 25-1210 L858R) above
- Measurement protocol: Radioisotope filter binding assay (33P-ATP kinase activity, IC50)
- Run conditions: EGFR L858R, read-out: IC50 Activity level EGFR L858R
- Experimental: Radioisotope Filter Binding Assay: In this assay format, it directly detects the true product without the use of modified substrates or coupling enzymes (Uitdehaag, J. C. et al. Br. J. Pharmacol. 2012, 166, 858-876; Hastie, C. J. et al. Nat. Protoc. 2006, 1, 968-971) according to equation 1. The protocol calls for test compound of the invention to be incubated with kinase, substrate, cofactors, and radio-isotope-labeled ATP (^33P-gamma-ATP). […]
pIC50: −log10 of the molar value.

pIC50 of N#Cc1cnc2cc(OC[C@H](O)CO)c(NC(=O)CC3CSSC3)cc2c1Nc1ccc(OCc2cccc(F)c2)c(Cl)c1 , assay on kinase (Homo sapiens, UniProt P00533, L858R), is 6.00 to 7.00

pIC50 of N#Cc1cnc2cc(OC[C@H](O)CO)c(NC(=O)C3CSSC3)cc2c1Nc1ccc(OCc2cccc(F)c2)c(Cl)c1 , assay on kinase (Homo sapiens, UniProt P00533, L858R), is 6.00 to 7.00

List reported pIC50 for each of these compounds:
1. N#Cc1cnc2cc(OC[C@@H](O)CO)c(NC(=O)CC3CSSC3)cc2c1Nc1ccc(OCc2cccc(F)c2)c(Cl)c1
2. N#Cc1cnc2cc(OC[C@@H](O)CO)c(NC(=O)C3CSSC3)cc2c1Nc1ccc(OCc2cccc(F)c2)c(Cl)c1

1: 6.00 to 7.00; 2: 7.00 to 9.00

----------
pIC50: −log10 of the molar value.
Reported pIC50 for target or system kinase (Homo sapiens, UniProt Q15303), by entry.

Worked cases, pIC50 given:
pIC50 of N#Cc1cnc2cc(OC[C@@H](O)CO)c(NC(=O)C3CSSC3)cc2c1Nc1ccc(OCc2cccc(F)c2)c(Cl)c1 , assay on kinase (Homo sapiens, UniProt Q15303), is 7.00 to 9.00

pIC50 of N#Cc1cnc2ccc(NC(=O)C3CSSC3)cc2c1Nc1ccc(OCc2cccc(F)c2)c(Cl)c1 , assay on kinase (Homo sapiens, UniProt Q15303), is 6.00 to 7.00

pIC50 of N#Cc1cnc2cc(OC[C@@H](O)CO)c(NC(=O)CC3CSSC3)cc2c1Nc1ccc(OCc2cccc(F)c2)c(Cl)c1 , assay on kinase (Homo sapiens, UniProt Q15303), is 7.00 to 9.00

List reported pIC50 for each of these compounds:
1. N#Cc1cnc2ccc(NC(=O)CC3CCSS3)cc2c1Nc1ccc(OCc2cccc(F)c2)c(Cl)c1 (centres unmarked)
2. N#Cc1cnc2cc(OC[C@H](O)CO)c(NC(=O)CC3CSSC3)cc2c1Nc1ccc(OCc2cccc(F)c2)c(Cl)c1

1: 7.00 to 9.00; 2: 7.00 to 9.00

----------
- System tested: EGFR WT (wild type EGFR) (Homo sapiens (Human), UniProt P00533)
- Sequence (P00533 25-1210): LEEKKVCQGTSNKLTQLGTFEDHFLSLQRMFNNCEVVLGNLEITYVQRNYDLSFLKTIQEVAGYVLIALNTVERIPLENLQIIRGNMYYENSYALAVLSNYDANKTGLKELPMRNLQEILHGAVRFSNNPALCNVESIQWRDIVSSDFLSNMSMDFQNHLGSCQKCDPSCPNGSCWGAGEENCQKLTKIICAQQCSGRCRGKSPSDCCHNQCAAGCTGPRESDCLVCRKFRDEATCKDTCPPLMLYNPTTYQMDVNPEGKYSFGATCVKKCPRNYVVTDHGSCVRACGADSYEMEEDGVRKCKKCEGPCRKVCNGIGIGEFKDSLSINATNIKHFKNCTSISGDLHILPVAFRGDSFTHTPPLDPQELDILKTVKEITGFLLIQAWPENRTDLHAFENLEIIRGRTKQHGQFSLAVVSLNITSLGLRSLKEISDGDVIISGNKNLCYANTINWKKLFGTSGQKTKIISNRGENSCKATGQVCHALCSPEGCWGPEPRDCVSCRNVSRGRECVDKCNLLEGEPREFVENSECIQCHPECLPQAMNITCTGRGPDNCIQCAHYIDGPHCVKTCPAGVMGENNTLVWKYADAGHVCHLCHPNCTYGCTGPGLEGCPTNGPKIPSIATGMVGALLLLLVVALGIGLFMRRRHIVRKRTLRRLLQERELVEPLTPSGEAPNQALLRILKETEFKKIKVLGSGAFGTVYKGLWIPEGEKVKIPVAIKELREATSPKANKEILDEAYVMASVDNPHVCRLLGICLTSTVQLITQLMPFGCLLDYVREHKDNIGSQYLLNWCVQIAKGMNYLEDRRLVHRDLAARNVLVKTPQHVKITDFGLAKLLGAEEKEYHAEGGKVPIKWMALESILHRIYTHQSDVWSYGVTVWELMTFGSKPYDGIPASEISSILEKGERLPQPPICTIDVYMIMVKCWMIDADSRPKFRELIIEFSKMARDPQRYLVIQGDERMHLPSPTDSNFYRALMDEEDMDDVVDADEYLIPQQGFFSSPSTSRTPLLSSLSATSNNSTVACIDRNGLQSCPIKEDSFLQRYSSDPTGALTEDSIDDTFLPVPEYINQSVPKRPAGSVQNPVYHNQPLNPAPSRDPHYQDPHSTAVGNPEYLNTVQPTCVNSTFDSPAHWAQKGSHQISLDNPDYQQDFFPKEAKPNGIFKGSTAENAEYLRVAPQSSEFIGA
- Measurement protocol: KINOMEscan competition binding assay (Kd)
- Run conditions: read-out: Kd Activity Level (EGFR WT)
Measure name: Kd

Worked cases, Kd given:
The recorded Kd for entry CC1(C)OC[C@H](COc2cc3ncc(C#N)c(Nc4ccc(OCc5cccc(F)c5)c(Cl)c4)c3cc2NC(=O)C[C@@H]2CCSS2)O1 (single isomer, unassigned; isomer 1) [80 isomer 1] equals 1 to 99 nM

The recorded Kd for entry CC1(C)OC[C@H](COc2cc3ncc(C#N)c(Nc4ccc(OCc5cccc(F)c5)c(Cl)c4)c3cc2NC(=O)CC2CCSS2)O1 (single isomer, unassigned; isomer 2) [84 isomer 2] equals 1 to 99 nM

Moving on to another molecule below.
The recorded Kd for entry N#Cc1cnc2cc(OC[C@H](O)CO)c(NC(=O)CC3CCSS3)cc2c1Nc1ccc(OCc2cccc(F)c2)c(Cl)c1 (stereo partly drawn) equals 1 to 99 nM
